species: Homo sapiens; test: Selectivity ratio, ratio of inhibition of HDAC in human HeLa nuclear extract assessed as residual activity to inhibition of human recombinant HDAC6 assessed as residual activity
The source made the active and inactive calls. The calls are words filed in the database; no cut-off is given here.
READOUT_KIND: Ratio

COMPOUND	VALUE_REPORTED
COc1cc(C2/C(=C/c3ccc(C(=O)NO)cc3)C(=O)c3cc(OC)c(OC)c(OC)c32)cc(OC)c1OC (centres undefined)	inactive
COc1cc(C2/C(=C/c3ccc(/C=C/C(=O)NOC(C)=O)cc3)C(=O)c3cc(OC)c(OC)c(OC)c32)cc(OC)c1OC (centres undefined)	inactive
COc1cc(C2c3c(cc(OC)c(OC)c3OC)C(=O)C2Cc2ccc(C(=O)NO)cc2)cc(OC)c1OC (centres undefined)	> 7
COc1cc2c(cc1OC)C(=O)/C(=C\c1ccc(C(=O)NOCc3ccccc3)cc1)C2	> 7

* * *

assay: Selectivity index, ratio of IC50 for african green monkey Vero cells to IC50 for human K562 cells; type: toxicity; conditions: Vero cells versus K562 cells, read-out: Ratio IC50
Assign Y whenever selectivity ratio does not fall below 2; assign N whenever it does.

Exercise: Could you verify whether the entry COc1cc2c(cc1OC)C(=O)C(Cc1ccc(CCC(=O)NO)cc1)C2 (configuration not stated) shows selectivity ratio of no less than 2?
Solution: N

Exercise: Could you verify whether the entry COc1cc2c(cc1OC)C(=O)/C(=C\c1ccc(C(=O)NO)cc1)C2 shows selectivity ratio of no less than 2?
Solution: N

Exercise: Could you verify whether the entry COc1cc(C2/C(=C/c3ccc(C(=O)NO)cc3)C(=O)c3cc(OC)c(OC)c(OC)c32)cc(OC)c1OC (configuration not stated) shows selectivity ratio of no less than 2?
Solution: N

Exercise: Could you verify whether the entry COc1cc(C2/C(=C/c3ccc(OCCCC(=O)NO)cc3)C(=O)c3cc(OC)c(OC)c(OC)c32)cc(OC)c1OC (configuration not stated) shows selectivity ratio of no less than 2?
Solution: Y

Exercise: Could you verify whether the entry COc1ccc2c(c1)C/C(=C/c1ccc(/C=C/C(=O)NO)cc1)C2=O shows selectivity ratio of no less than 2?
Solution: N

Exercise: Could you verify whether the entry COc1ccc2c(c1)CC(Cc1ccc(C(=O)NO)cc1)C2=O (configuration not stated) shows selectivity ratio of no less than 2?
Solution: Y

Exercise: Could you verify whether the entry COc1cc(C2c3c(cc(OC)c(OC)c3OC)C(=O)C2Cc2ccc(C(=O)NO)cc2)cc(OC)c1OC (configuration not stated) shows selectivity ratio of no less than 2?
Solution: Y

Exercise: Could you verify whether the entry COc1ccc2c(c1)CC(Cc1ccc(CCC(=O)NO)cc1)C2=O (configuration not stated) shows selectivity ratio of no less than 2?
Solution: N

Exercise: Could you verify whether the entry COc1cc(C2/C(=C/c3ccc(/C=C/C(=O)NO)cc3)C(=O)c3cc(OC)c(OC)c(OC)c32)cc(OC)c1OC (configuration not stated) shows selectivity ratio of no less than 2?
Solution: Y

Exercise: Could you verify whether the entry COc1cc(C2c3c(cc(OC)c(OC)c3OC)C(=O)C2Cc2ccc(CCC(=O)NO)cc2)cc(OC)c1OC (configuration not stated) shows selectivity ratio of no less than 2?
Solution: N

* * *

tested on: K562; test: Cytotoxicity against human K562 cells incubated for 72 hrs by Sulphorhodamine assay; format: functional, cell-based; conditions: K562, 72 h
Could you please report measured pIC50 for the items listed next?
pIC50 is defined as minus the log10 of a concentration measured in mol/L.

Data point: COc1cc(C2/C(=C/c3ccc(/C=C/C(=O)NO)cc3)C(=O)c3cc(OC)c(OC)c(OC)c32)cc(OC)c1OC (stereo unspecified) ; pIC50 = 5.49

Data point: COc1cccc2c1C(=O)c1c(O)c3c(c(O)c1C2=O)C[C@@](O)(C(=O)CO)C[C@@H]3O[C@H]1C[C@H](N)[C@H](O)[C@H](C)O1 ; pIC50 = 5.28

Data point: COc1cc2c(cc1OC)C(=O)/C(=C\c1ccc(C(=O)NO)cc1)C2 ; pIC50 = 4.33

Data point: COc1cc(C2c3c(cc(OC)c(OC)c3OC)C(=O)C2Cc2ccc(CCC(=O)NO)cc2)cc(OC)c1OC (stereo unspecified) ; pIC50 = 4.29

Data point: COc1cc(C2/C(=C/c3ccc(C(=O)NO)cc3)C(=O)c3cc(OC)c(OC)c(OC)c32)cc(OC)c1OC (stereo unspecified) ; pIC50 = 4.32

Data point: CN1CCc2c(c3ccccc3n2Cc2ccc(C(=O)NO)cc2)C1 ; pIC50 = 5.68

Data point: COc1cc([C@@H]2c3cc4c(cc3[C@H](O)[C@H]3COC(=O)[C@H]23)OCO4)cc(OC)c1OC ; pIC50 = 4.74

Data point: COc1cc(C2/C(=C/c3ccc(/C=C/C(=O)NOC(C)=O)cc3)C(=O)c3cc(OC)c(OC)c(OC)c32)cc(OC)c1OC (stereo unspecified) ; pIC50 = 4.63

* * *

test system: K562; test: Cytotoxicity against human K562 cells incubated for 72 hrs by Sulphorhodamine assay; assay type: functional, cell-based; conditions: K562, 72 h
pIC50: −log10 of the molar value.
Could you please report measured pIC50 for the items listed next?

Data point: COc1cc2c(cc1OC)C(=O)C(Cc1ccc(C(=O)NO)cc1)C2 (stereo not drawn) ; pIC50 = < 4.00

Data point: COc1cc2c(cc1OC)C(=O)/C(=C\c1ccc(/C=C/C(=O)NO)cc1)C2 ; pIC50 = < 4.00

Data point: COc1ccc2c(c1)C/C(=C/c1ccc(/C=C/C(=O)NO)cc1)C2=O ; pIC50 = < 4.00

Where do these numbers come from? They come from ChEMBL document CHEMBL5257120.
